- subject_of_test: SARS-CoV-2 receptor-binding domain (SARS-CoV-2, UniProt P0DTC2)
- assay_procedure: BLI
pKd: −log10 of the molar value.
Reported pKd by item:
parameter_measured: pKd

binder	measurement
AB-3623, expressed as human IgG1 (antibody, V domains shown) VH: QVQLQESGPGLVKPSETLSLTCAVSGGSISSYYWNWIRQPPGTGLEWIGYIYYSGRTNYNPSLKSRVTISVDTSKNQFSLKLSSVTAADTAVYYCAREMRRGYSGYDDWDLYAFDIWGQGTMVTVSS VL: DIQLTQSPSFLSTSIGDRVTITCRASQGISSYLAWYQQKPGKAPNLLIYAASTLQSGVPSRFSGSGSGTEFTLTISSLQPEDFATYYCQQLNSYPHTFGQGTKLEIK	8.64
AB-4873, expressed as human IgG1 (antibody, V domains shown) VH: QVQLVQSGAEVKKPGASVKVSCKASGYTFTSYYMHWVRQAPGQGLEWMGIINPSAGTTNYAQKFQGRVTMTRDTSTSTVYMELSSLRPEDTAVYYCARENYYGWGSYPFDYWGQGTLVTVSS VL: DVQLTQSPSFLSASVGDRVTITCRASQGISSYLAWYQQKPGKAPKLLIYAASTLQSGVPSRFSGTGSGTEFTLTISSLQPEDFATYYCQQLNSYPYTFGQGTKLEIK	8.39
AB-4689, expressed as human IgG1 (antibody, V domains shown) VH: QVQLVQSGAEVKKPGASVKVSCKASGYTFSSYGISWVRQAPGQGLEWMGWISAYNGNTYYAQKLQGRVTMTTDTSTSTAYMELRSLRSDDTAVYYCAREFGRLIVHFDYWGQGTLVTVSS VL: EIVLTQSPDFQSVTPKEKVTITCRASQSIGSSLSWYQQKPDQSPKLLIKCASQSISGVPSRFSGSGSGTDFTLTINSLEAEDAAAYYCHQSSSLPYTFGQGTKLEIK	9.62
AB-3467, expressed as human IgG1 (antibody, V domains shown) VH: QVQLQESGPGLVKPSETLSLTCTVSGGSISSYHWNWIRQPPGKGLEWIGYIYYSGNTNYNPSLKSRVSISTDTSKNQFSLKLSSVTAADTAVYYCVREMRRGYSGYDYWDLYAFDIWGQGTMVTVSS VL: DIQLTQSPSFLSASVGDRVTITCRASQGISSYLAWYQQKPGKAPNLLIYAASTLQSGVPSRFSGSGSGTEFTLTISSLQPEDFATYYCQQLNSYPHTFGQGTKLEIK	8.39
